- Target under test: soluble guanylate cyclase (human GUCYA3 and GUCYB3) overexpressed in CHO cells (Homo sapiens (Human), UniProt Q02108+Q02153)
- Sequence (Q02108 whole entry partner): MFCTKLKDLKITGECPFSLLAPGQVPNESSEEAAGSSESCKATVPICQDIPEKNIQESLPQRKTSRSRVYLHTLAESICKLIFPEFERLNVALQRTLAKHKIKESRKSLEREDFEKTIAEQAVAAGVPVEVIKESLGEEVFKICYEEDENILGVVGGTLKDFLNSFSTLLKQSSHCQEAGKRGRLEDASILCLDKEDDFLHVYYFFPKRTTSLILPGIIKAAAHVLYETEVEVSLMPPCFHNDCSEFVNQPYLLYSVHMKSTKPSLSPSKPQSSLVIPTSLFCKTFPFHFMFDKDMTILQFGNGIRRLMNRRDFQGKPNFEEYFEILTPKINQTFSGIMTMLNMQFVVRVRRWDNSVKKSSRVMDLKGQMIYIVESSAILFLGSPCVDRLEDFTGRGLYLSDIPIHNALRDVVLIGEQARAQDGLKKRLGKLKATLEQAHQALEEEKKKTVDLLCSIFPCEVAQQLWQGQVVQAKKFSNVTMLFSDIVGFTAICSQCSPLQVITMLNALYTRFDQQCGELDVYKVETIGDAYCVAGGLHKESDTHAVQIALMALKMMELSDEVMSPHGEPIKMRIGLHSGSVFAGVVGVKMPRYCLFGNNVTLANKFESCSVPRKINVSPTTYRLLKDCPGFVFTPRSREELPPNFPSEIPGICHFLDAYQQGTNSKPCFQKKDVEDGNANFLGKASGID
- Sequence (Q02153 whole entry): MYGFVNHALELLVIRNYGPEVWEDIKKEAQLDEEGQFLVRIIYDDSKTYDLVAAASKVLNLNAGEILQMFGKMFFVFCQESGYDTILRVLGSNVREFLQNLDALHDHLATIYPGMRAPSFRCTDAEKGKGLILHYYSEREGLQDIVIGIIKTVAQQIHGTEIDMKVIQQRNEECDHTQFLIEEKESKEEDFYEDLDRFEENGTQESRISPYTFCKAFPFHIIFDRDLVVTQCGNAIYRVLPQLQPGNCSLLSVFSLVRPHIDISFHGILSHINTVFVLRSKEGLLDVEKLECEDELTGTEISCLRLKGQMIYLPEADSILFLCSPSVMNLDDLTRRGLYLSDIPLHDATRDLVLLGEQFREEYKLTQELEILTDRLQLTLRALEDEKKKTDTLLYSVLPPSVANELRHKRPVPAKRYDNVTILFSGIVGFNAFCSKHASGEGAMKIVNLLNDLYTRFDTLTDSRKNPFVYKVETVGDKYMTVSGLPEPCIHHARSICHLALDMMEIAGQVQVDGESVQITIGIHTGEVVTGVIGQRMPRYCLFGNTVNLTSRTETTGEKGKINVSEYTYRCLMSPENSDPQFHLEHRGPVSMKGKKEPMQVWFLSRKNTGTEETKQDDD
- Protocol details: CHO cellular assay (cGMP production, Cisbio cGMP HTRF kit)
- Assay type: cell-based
- Settings: CHO GUCY clone 8E10, cGMP production, assay buffer with 1 mM IBMX and 20 uM ODQ, 1 h room temperature; minimum quantification limit 0.5 nM (listed 0.5 nM means ≤0.5 nM); read-out: EC50
pEC50: −log10 of the molar value.
Metric name: pEC50

Consider the reported pEC50 for these compounds:
# Compound, pEC50
rows = [
    ("CCc1cc(NC2CCc3cccc(-c4cccc(-n5ncc(C(=O)O)c5CC)n4)c32)ccc1C1CCN(C(=O)OC)CC1 (single isomer, unassigned; (+)) [(+)-52-2]", "≥ 9.30"),
    ("CCc1cc(CC2CCc3cccc(-c4cccc(-n5ncc(C(=O)O)c5CC)n4)c32)ccc1C1CCN(C(=O)[C@H](C)O)CC1 (single isomer, unassigned; (+)) [Example 39. b). (+)]", "≥ 9.30"),
    ("Cc1cc2c(c(-c3cccc(-n4ncc(C(=O)O)c4C(F)(F)F)n3)c1)C(Oc1ccc(C3CCN(C(=O)C4CC4)CC3)cc1C)CC2 (stereo not drawn) [Example 5-2]", 9.00),
    ("CCc1cc(Cn2ccc3cccc(-c4cccc(-n5ncc(C(=O)O)c5CC)n4)c32)ccc1C1CCN(C(=O)C2CC2)CC1 [Example 27]", "≥ 9.30"),
    ("Cc1cc(C2CCN(C(=O)C(C)C)CC2)ccc1NC1CCc2cccc(-c3cccc(-n4ncc(C(=O)O)c4C)n3)c21 (single isomer, unassigned; (+)) [(+)-46-1]", "≥ 9.30"),
]

Turning now to a further compound:
Quick one: pEC50 for CCc1cc(O[C@H]2CCc3cccc(-c4cccc(-n5ncc(C(=O)O)c5C(F)(F)F)n4)c32)ccc1C1CCN(C(=O)C2CC2)CC1 [Example 5-3] ? ≥ 9.30

---

- Target under test: soluble guanylate cyclase (human GUCYA3 and GUCYB3) overexpressed in CHO cells (Homo sapiens (Human), UniProt Q02108+Q02153)
- Protocol details: CHO cellular assay (cGMP production, Cisbio cGMP HTRF kit)
- Type: cell-based
- Settings: CHO GUCY clone 8E10, cGMP production, assay buffer with 1 mM IBMX and 20 uM ODQ, 1 h room temperature; minimum quantification limit 0.5 nM (listed 0.5 nM means ≤0.5 nM); read-out: EC50
Metric name: EC50 (nM)

# Compound, EC50 [nM]
data = [
    ("CCc1cc(NC2CCc3cccc(-c4cccc(-n5ncc(C(=O)O)c5CC)n4)c32)ccc1C1CCN(C(=O)OC)CC1 (single isomer, unassigned; (-)) [(−)-52-2]", 1),
    ("CCOC(=O)N1CCC(c2ccc(NC3CCc4cccc(-c5cccc(-n6ncc(C(=O)O)c6CC)n5)c43)cc2CC)CC1 (single isomer, unassigned; (-)) [(−)-52-1]", 19),
    ("CCc1cc(CC2CCc3cccc(-c4cccc(-n5ncc(C(=O)O)c5CC)n4)c32)ccc1C1CCN(C(=O)C2CC2)CC1 (single isomer, unassigned; (-)) [38-1 (−)]", 17),
    ("Cc1cc(C2CCN(C(=O)C3CC3)CC2)ccc1O[C@H]1CCc2cccc(-c3cccc(-n4cc(C(=O)O)cn4)n3)c21 [Example 5-5]", 2.4),
    ("CCc1cc(CN2CC(C)(C)c3cccc(-c4cccc(-n5ncc(C(=O)O)c5CC)n4)c32)ccc1C1CCN(C(=O)C2CC2)CC1 [Example 23]", 2),
]

a. CCc1cc(CN2CCc3cccc(-c4cccc(-n5ncc(C(=O)O)c5CC)n4)c32)ccc1C1CCN(CC(F)(F)F)CC1 [Example 16]
b. CCc1cc(O[C@H]2CCc3cccc(-c4cccc(-n5ncc(C(=O)O)c5CC)n4)c32)ccc1C1CCN(C(=O)OCC2CC2)CC1 [Example 64-6]
c. O=C(O)c1cnn(-c2cccc(-c3cccc4c3N(Cc3ccc5c(c3)CCN(Cc3ccccn3)C5)CC4)n2)c1C(F)(F)F [Example 25]
d. CCc1cc(NC2COc3cccc(-c4cccc(-n5ncc(C(=O)O)c5C(F)(F)F)n4)c32)ccc1C1CCN(C(=O)C2CC2)CC1 (single isomer, unassigned; (-)) [(−)-36-1]
Sort the 4 compounds by EC50; largest first, smallest last. Provide your answer as the labels ordered per the instruction. d, a, c, b
(d: 20 nM, a: 3.5 nM, c: 2.4 nM, b: 1.4 nM)
